# Method notes: Pharmacokinetics and bioavailability of Compound I-2 in rats (plasma Compound IV-1 by LC-MS/MS)
# Format: in vivo, rat
# Test context: male, SD, rat, plasma, iv, 2.7 mg/kg, intravenous injection 8 μmol/kg (2.7 mg/kg), individual animal, read-out: AUC0-∞ of Compound IV-1, single animals
Value type: AUC(0-inf) (ng·h/mL)
Give the value in ng·h/mL but do not write ng·h/mL after it.

## Task Given the entry COC(=O)[C@H](c1ccccc1Cl)N1CCC2SC(=O)C=C2C1 (stereo partly shown) , report its measured AUC(0-inf).
## Result 269

* * *

# Method notes: Pharmacokinetics and bioavailability of Compound I-2 in rats (plasma Compound IV-1 by LC-MS/MS)
# Assay type: in vivo, rat
# Test context: male, Sprague-Dawley, rat, plasma, iv, 8 umol/kg, SD rats, intravenous injection 8 μmol/kg (2.7 mg/kg), mean of 3; read-out: AUC0-∞ of Compound IV-1, Mean
Value type: AUC(0-inf) (ng·h/mL)
Use ng·h/mL as the unit, but write only the number.

## Task What measured AUC(0-inf) goes with COC(=O)[C@H](c1ccccc1Cl)N1CCC2SC(=O)C=C2C1 (stereo partly shown) [IV-1] ?
## Result 268

Each recorded value in this set is attributed to patent US8772489B2.
